The reported numbers originate from paper PMC10539501.

studyTarget: pepsin (Sus scrofa, UniProt P00791)
Sequence (P00791 60-385): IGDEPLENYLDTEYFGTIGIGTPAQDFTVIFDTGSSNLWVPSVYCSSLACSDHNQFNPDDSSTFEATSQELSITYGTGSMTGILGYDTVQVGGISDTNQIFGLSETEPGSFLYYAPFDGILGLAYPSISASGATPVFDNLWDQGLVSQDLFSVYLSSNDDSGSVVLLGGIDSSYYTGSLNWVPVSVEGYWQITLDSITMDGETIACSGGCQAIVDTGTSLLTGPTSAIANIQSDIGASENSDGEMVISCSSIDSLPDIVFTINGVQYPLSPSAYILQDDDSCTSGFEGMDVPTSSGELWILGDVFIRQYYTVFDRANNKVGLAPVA
assayComment: in vitro
measurementSetup: simulated gastric fluid, pH 1.2
Starred links: 1 amine or outer side, 2 acyl side, 3 side chain; linkers in the order of their positions; H or OH if unused. Non-standard residues stand in square brackets, D forms with d. Residues, ends and D or L forms follow the SMILES beside them. X6 = O=C([C@H](Cc1ccc(O)cc1)NC(=S)[C@H]1CCCN1[*:1])[*:2]; X3 = CC(C)C[C@H](N[*:1])C(=S)N[C@H](CC(C)C)C(=O)[*:2]; NMeL = CN[C@@H](CC(C)C)C(=O)O; dNMeL = CN[C@H](CC(C)C)C(=O)O
We begin with a simple list: items and their reported remaining at 10 min.
observationType: remaining at 10 min (%)

CC(C)C[C@@H]1NC(=O)[C@@H](CC(C)C)NC(=O)[C@H](CC(C)C)N(C)C(=O)[C@H](Cc2ccc(O)cc2)NC(=O)[C@H]2CCCN2C(=O)[C@H](CC(C)C)NC1=O [10k] (cyclo(LL[dP]Y[NMeL][dL])) :: 84
CC(C)C[C@@H]1NC(=O)[C@@H](CC(C)C)N(C)C(=O)[C@H](CC(C)C)NC(=O)[C@H](Cc2ccc(O)cc2)NC(=O)[C@H]2CCCN2C(=O)[C@H](CC(C)C)NC1=O [10g] (cyclo(LL[dP]YL[dNMeL])) :: 65
CC(C)C[C@@H]1NC(=O)[C@H](Cc2ccc(O)cc2)NC(=O)[C@H]2CCCN2C(=O)[C@H](CC(C)C)NC(=O)[C@H](CC(C)C)NC(=O)[C@@H](CC(C)C)NC1=O [compound 10, cyclo(-D-Leu^1-Leu-Leu-D-Pro-Tyr-Leu^6-)] (cyclo(LL[dP]YL[dL])) :: 54
CC(C)C[C@@H]1NC(=O)[C@@H](CC(C)C)NC(=S)[C@H](CC(C)C)NC(=O)[C@H](Cc2ccc(O)cc2)NC(=O)[C@H]2CCCN2C(=O)[C@H](CC(C)C)NC1=O [10f] (cyclo(LL[dP]Y[X3])) :: 73
CC(C)C[C@@H]1NC(=O)[C@H](Cc2ccc(O)cc2)NC(=S)[C@H]2CCCN2C(=O)[C@H](CC(C)C)NC(=O)[C@H](CC(C)C)NC(=O)[C@@H](CC(C)C)NC1=O [10d] (cyclo(LL[X6]L[dL])) :: 66

* * *

assayComment: PAMPA passive permeability;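 further: passive permeability across an artificial membrane in 96-well pre-coated PAMPA plates, which lack transporters and efflux systems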
Type: in vitro ADME
measurementSetup: Pe (PAMPA vs logD7.4)
Starred links: 1 amine or outer side, 2 acyl side, 3 side chain; linkers in the order of their positions; H or OH if unused. Non-standard residues stand in square brackets, D forms with d. Residues, ends and D or L forms follow the SMILES beside them. X13 = CC[C@H](C)[C@H](NC(=S)[C@@H]1CCCN1[*:1])C(=O)[*:2]; AlaΨ(CSNH)Ala = C[C@H](NC(=S)[C@H](C)N[*:1])C(=O)[*:2]; X11 = CC[C@H](C)[C@H](N[*:1])C(=S)N[C@@H](C)C(=O)[*:2]
Each entry gets criterion not met if its Papp stays under 0.4 ×10⁻⁶ cm/s, and criterion met if its Papp is 0.4 ×10⁻⁶ cm/s or above.

CC[C@H](C)[C@@H]1NC(=O)[C@@H]2CCCN2C(=O)[C@H](Cc2ccccc2)NC(=O)[C@H](C)NC(=O)[C@H](C)NC(=S)[C@H]([C@@H](C)CC)NC(=O)[C@@H]2CCCN2C1=O [11a] (cyclo(AFPIP[X11])) :: criterion met
CC[C@H](C)[C@@H]1NC(=S)[C@@H]2CCCN2C(=O)[C@H]([C@@H](C)CC)NC(=O)[C@@H]2CCCN2C(=O)[C@H](Cc2ccccc2)NC(=O)[C@H](C)NC(=O)[C@H](C)NC1=O [11g] (cyclo(AAFPI[X13])) :: criterion not met
CC[C@H](C)[C@@H]1NC(=O)[C@@H]2CCCN2C(=O)[C@H]([C@@H](C)CC)NC(=S)[C@@H]2CCCN2C(=O)[C@H](Cc2ccccc2)NC(=O)[C@H](C)NC(=O)[C@H](C)NC1=O [11e] (cyclo(AAF[X13]PI)) :: criterion met
CC[C@H](C)[C@@H]1NC(=O)[C@@H]2CCCN2C(=O)[C@H]([C@@H](C)CC)NC(=O)[C@@H]2CCCN2C(=O)[C@H](Cc2ccccc2)NC(=O)[C@H](C)NC(=S)[C@H](C)NC1=O [11b] (cyclo(FPIPI[AlaΨ(CSNH)Ala])) :: criterion met

* * *

assayComment: in vitro
measurementSetup: both, human, plasma
Starred links: 1 amine or outer side, 2 acyl side, 3 side chain; linkers in the order of their positions; H or OH if unused. Non-standard residues stand in square brackets, D forms with d. Residues, ends and D or L forms follow the SMILES beside them. X1 = CC(C)C[C@H](NC(=S)[C@H](Cc1ccc(O)cc1)N[*:1])C(=O)[*:2]; X6 = O=C([C@H](Cc1ccc(O)cc1)NC(=S)[C@H]1CCCN1[*:1])[*:2]; X2 = CC(C)C[C@H](NC(=S)[C@@H](CC(C)C)N[*:1])C(=O)[*:2]; X3 = CC(C)C[C@H](N[*:1])C(=S)N[C@H](CC(C)C)C(=O)[*:2]; X5 = CC(C)C[C@H](NC(=S)[C@H](CC(C)C)N[*:1])C(=O)[*:2]; X4 = CC(C)C[C@H](N[*:1])C(=S)N1CCC[C@@H]1C(=O)[*:2]
We begin with a simple list: items and their reported remaining at 3 h.
observationType: remaining at 3 h (%)

CC(C)C[C@@H]1NC(=O)[C@H](Cc2ccc(O)cc2)NC(=O)[C@H]2CCCN2C(=O)[C@H](CC(C)C)NC(=S)[C@H](CC(C)C)NC(=O)[C@@H](CC(C)C)NC1=O [10b] (cyclo(L[dL][X5][dP]Y)) :: 85
CC(C)C[C@@H]1NC(=O)[C@@H](CC(C)C)NC(=S)[C@H](CC(C)C)NC(=O)[C@H](Cc2ccc(O)cc2)NC(=O)[C@H]2CCCN2C(=O)[C@H](CC(C)C)NC1=O [10f] (cyclo(LL[dP]Y[X3])) :: 87
CC(C)C[C@@H]1NC(=O)[C@H](Cc2ccc(O)cc2)NC(=O)[C@H]2CCCN2C(=S)[C@H](CC(C)C)NC(=O)[C@H](CC(C)C)NC(=O)[C@@H](CC(C)C)NC1=O [10c] (cyclo(L[dL]L[X4]Y)) :: 83
CC(C)C[C@@H]1NC(=O)[C@H](Cc2ccc(O)cc2)NC(=O)[C@H]2CCCN2C(=O)[C@H](CC(C)C)NC(=O)[C@H](CC(C)C)NC(=S)[C@@H](CC(C)C)NC1=O [10a] (cyclo(L[dP]YL[X2])) :: 84
CC(C)C[C@@H]1NC(=O)[C@H](Cc2ccc(O)cc2)NC(=O)[C@H]2CCCN2C(=O)[C@H](CC(C)C)NC(=O)[C@H](CC(C)C)NC(=O)[C@@H](CC(C)C)NC1=O [compound 10, cyclo(-D-Leu^1-Leu-Leu-D-Pro-Tyr-Leu^6-)] (cyclo(LL[dP]YL[dL])) :: 80
CC(C)C[C@@H]1NC(=O)[C@H](Cc2ccc(O)cc2)NC(=S)[C@H]2CCCN2C(=O)[C@H](CC(C)C)NC(=O)[C@H](CC(C)C)NC(=O)[C@@H](CC(C)C)NC1=O [10d] (cyclo(LL[X6]L[dL])) :: 81
CC(C)C[C@@H]1NC(=O)[C@@H](CC(C)C)NC(=O)[C@H](CC(C)C)NC(=S)[C@H](Cc2ccc(O)cc2)NC(=O)[C@H]2CCCN2C(=O)[C@H](CC(C)C)NC1=O [10e] (cyclo(LL[dP][X1][dL])) :: 82

* * *

We begin with a simple list: items and their reported remaining at 60 h.
assayComment: in vitro
measurementSetup: both, human, plasma
Starred links: 1 amine or outer side, 2 acyl side, 3 side chain; linkers in the order of their positions; H or OH if unused. Non-standard residues stand in square brackets, D forms with d. Residues, ends and D or L forms follow the SMILES beside them. X1 = CC(C)C[C@H](NC(=S)[C@H](Cc1ccc(O)cc1)N[*:1])C(=O)[*:2]; X2 = CC(C)C[C@H](NC(=S)[C@@H](CC(C)C)N[*:1])C(=O)[*:2]; X4 = CC(C)C[C@H](N[*:1])C(=S)N1CCC[C@@H]1C(=O)[*:2]
observationType: remaining at 60 h (%)

CC(C)C[C@@H]1NC(=O)[C@H](Cc2ccc(O)cc2)NC(=O)[C@H]2CCCN2C(=O)[C@H](CC(C)C)NC(=O)[C@H](CC(C)C)NC(=S)[C@@H](CC(C)C)NC1=O [10a] (cyclo(L[dP]YL[X2])) :: 22
CC(C)C[C@@H]1NC(=O)[C@H](Cc2ccc(O)cc2)NC(=O)[C@H]2CCCN2C(=O)[C@H](CC(C)C)NC(=O)[C@H](CC(C)C)NC(=O)[C@@H](CC(C)C)NC1=O [compound 10, cyclo(-D-Leu^1-Leu-Leu-D-Pro-Tyr-Leu^6-)] (cyclo(LL[dP]YL[dL])) :: 4
CC(C)C[C@@H]1NC(=O)[C@H](Cc2ccc(O)cc2)NC(=O)[C@H]2CCCN2C(=S)[C@H](CC(C)C)NC(=O)[C@H](CC(C)C)NC(=O)[C@@H](CC(C)C)NC1=O [10c] (cyclo(L[dL]L[X4]Y)) :: 10
CC(C)C[C@@H]1NC(=O)[C@@H](CC(C)C)NC(=O)[C@H](CC(C)C)NC(=S)[C@H](Cc2ccc(O)cc2)NC(=O)[C@H]2CCCN2C(=O)[C@H](CC(C)C)NC1=O [10e] (cyclo(LL[dP][X1][dL])) :: 25
